Where do these numbers come from? They come from ChEMBL document CHEMBL4819075.

Measured target: Tyrosine-protein kinase BTK (Homo sapiens)
Sequence (Q06187 whole entry): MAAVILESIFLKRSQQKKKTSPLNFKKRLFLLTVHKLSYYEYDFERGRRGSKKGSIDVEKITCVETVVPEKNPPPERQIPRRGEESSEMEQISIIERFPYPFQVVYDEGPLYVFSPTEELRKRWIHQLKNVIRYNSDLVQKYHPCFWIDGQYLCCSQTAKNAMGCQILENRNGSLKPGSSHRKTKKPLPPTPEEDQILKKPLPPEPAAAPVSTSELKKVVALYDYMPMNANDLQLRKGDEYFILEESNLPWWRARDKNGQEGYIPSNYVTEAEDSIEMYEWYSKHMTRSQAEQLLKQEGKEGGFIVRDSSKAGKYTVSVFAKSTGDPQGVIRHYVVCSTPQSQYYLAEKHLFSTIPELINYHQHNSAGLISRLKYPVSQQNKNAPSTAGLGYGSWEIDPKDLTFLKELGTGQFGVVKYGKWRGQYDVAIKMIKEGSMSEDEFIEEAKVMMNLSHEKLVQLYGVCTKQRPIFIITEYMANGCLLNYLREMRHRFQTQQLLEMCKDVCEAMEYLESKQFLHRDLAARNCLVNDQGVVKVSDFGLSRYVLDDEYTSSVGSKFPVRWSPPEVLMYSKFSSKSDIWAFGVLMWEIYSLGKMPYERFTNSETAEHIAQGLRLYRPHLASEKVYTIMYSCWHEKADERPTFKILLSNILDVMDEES
Readout type: IC50

Prompt line: I have this compound here, COc1cc(Nc2nc(NCc3cccc(NC(=O)CCl)c3)n3ccnc3c2C(N)=O)cc(OC)c1 , and I need its recorded IC50.
Response line: > 1000 nM

====

Measured target: Tyrosine-protein kinase HCK (Homo sapiens, UniProt P08631)
Sequence (P08631 whole entry): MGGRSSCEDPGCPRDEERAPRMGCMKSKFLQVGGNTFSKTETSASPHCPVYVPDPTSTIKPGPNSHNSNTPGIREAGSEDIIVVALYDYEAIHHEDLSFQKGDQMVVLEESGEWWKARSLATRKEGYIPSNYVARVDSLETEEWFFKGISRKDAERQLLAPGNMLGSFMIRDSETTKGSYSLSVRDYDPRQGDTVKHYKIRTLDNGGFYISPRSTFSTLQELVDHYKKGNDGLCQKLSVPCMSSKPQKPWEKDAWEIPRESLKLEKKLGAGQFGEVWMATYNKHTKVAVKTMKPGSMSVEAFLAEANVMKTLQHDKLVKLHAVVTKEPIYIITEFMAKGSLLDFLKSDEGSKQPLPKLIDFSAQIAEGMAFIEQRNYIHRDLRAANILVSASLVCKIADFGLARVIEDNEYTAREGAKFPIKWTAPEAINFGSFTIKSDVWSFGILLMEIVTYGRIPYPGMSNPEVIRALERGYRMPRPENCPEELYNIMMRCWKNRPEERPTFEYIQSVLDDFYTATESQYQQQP
Readout type: IC50

Prompt line: May I ask what IC50 has been recorded for COc1cc(Nc2nc(NCc3cccc(NC(=O)CCl)c3)n3ccnc3c2C(N)=O)cc(OC)c1 ?
Response line: > 1000 nM

====

Measured target: Tyrosine-protein kinase ZAP-70 (Homo sapiens)
Sequence (P43403 whole entry, the tested form may be a part): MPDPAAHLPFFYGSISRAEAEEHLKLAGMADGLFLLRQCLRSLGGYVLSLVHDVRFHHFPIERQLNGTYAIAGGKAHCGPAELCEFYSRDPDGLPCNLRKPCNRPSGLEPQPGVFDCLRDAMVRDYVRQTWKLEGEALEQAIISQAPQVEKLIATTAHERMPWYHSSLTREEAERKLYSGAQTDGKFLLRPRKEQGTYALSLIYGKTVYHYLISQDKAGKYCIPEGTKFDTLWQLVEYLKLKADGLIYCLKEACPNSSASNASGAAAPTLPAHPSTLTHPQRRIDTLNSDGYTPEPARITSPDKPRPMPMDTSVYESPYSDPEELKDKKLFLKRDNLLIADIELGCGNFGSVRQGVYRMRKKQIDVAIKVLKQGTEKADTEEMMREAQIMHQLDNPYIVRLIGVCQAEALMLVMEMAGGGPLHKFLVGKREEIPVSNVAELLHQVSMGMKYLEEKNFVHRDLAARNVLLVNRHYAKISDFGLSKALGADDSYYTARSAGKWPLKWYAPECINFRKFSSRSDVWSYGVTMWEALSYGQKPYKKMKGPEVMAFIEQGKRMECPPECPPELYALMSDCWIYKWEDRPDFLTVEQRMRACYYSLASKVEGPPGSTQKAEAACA
Assay text: Inhibition of N-terminal GST-fused human recombinant full length ZAP70 (1 to 619 residues) expressed in baculovirus-infected Sf21 cells using FAM-22 peptide as substrate preincubated with enzyme for 10 mins followed by substrate addition for 30 mins in presence of ATP by caliper mobility shift assay
Readout type: IC50 (nM)
Answer with a number only, understood to be in nM.

Prompt line: Need IC50, item COc1cc(Nc2nc(NCc3cccc(NC(=O)CCl)c3)n3ccnc3c2C(N)=O)cc(OC)c1
Response line: 55

====

Measured target: Tyrosine-protein kinase ITK/TSK (Homo sapiens)
Sequence (Q08881 whole entry): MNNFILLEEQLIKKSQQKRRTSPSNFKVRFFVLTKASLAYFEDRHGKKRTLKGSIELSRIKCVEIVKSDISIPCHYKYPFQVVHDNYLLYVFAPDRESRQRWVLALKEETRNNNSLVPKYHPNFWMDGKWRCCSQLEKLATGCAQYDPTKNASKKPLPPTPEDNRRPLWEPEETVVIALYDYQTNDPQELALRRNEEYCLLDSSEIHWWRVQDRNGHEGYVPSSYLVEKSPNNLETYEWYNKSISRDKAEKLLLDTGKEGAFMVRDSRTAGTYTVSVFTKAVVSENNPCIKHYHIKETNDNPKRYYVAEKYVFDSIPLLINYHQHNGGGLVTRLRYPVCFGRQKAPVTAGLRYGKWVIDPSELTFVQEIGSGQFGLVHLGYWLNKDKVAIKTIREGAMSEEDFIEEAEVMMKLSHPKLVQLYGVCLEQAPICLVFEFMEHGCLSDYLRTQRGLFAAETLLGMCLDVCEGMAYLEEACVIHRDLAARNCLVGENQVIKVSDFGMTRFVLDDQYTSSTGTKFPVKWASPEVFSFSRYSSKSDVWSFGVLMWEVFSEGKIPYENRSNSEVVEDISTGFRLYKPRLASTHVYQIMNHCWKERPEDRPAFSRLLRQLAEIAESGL
Readout type: IC50

Prompt line: Item COc1cc(Nc2nc(NCc3cccc(NC(=O)CCl)c3)n3ccnc3c2C(N)=O)cc(OC)c1 has what recorded IC50?
Response line: > 1000 nM

====

Measured target: UniProt P29597
Sequence (P29597 whole entry): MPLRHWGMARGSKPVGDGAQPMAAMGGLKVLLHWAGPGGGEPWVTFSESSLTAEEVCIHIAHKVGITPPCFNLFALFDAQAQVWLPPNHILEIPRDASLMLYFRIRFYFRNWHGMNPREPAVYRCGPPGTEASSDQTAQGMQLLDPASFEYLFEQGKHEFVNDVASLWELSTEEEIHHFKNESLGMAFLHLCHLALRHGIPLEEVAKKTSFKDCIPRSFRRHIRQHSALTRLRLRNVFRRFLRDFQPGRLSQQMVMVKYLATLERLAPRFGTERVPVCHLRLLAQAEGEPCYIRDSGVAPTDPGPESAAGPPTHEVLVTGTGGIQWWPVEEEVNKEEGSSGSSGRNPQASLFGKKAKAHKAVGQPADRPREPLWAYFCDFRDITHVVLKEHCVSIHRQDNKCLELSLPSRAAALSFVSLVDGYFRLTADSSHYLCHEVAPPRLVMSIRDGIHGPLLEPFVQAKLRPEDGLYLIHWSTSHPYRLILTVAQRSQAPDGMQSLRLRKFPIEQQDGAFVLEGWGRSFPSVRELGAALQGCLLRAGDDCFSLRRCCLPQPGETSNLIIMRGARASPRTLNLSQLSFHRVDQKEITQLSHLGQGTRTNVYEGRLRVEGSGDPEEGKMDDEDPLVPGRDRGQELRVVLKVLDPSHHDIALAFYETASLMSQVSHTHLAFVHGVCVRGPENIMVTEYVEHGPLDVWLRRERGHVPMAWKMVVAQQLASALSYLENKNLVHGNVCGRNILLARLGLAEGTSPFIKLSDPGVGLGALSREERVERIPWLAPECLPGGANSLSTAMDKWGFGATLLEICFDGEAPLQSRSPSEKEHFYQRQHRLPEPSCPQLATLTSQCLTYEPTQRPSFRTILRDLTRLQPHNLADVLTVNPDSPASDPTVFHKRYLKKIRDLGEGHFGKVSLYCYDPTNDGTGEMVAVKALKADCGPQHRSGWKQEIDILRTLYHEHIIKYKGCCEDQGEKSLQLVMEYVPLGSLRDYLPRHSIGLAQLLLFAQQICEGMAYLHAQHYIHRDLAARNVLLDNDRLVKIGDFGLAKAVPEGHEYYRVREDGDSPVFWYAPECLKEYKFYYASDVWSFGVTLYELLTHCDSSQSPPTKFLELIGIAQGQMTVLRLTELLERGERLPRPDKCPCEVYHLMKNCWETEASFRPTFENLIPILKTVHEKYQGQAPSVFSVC
Readout type: IC50

Prompt line: Can you look up the measured IC50 of COc1cc(Nc2nc(NCc3cccc(NC(=O)CCl)c3)n3ccnc3c2C(N)=O)cc(OC)c1 for me?
Response line: > 1000 nM
